- Tested on: NCI-H226
- assay: NCI tumour cell line growth inhibition, 48 h
Activity calls are given as the source filed them. No stated cut-off is given here; in the data, active = GI50 up to about 1.1 µM and inactive = higher.
Can you tell me GI50 for the items I'm about to list?

* CC1CC(=O)C(C(O)CC2CC(=O)N(c3ccccc3)C(=O)C2)C(C)C1 (stereo unspecified) | > 100 µM (inactive)
* CCCCCC(=O)CCCCCCCC(O)CC(=O)OCC (stereo unspecified) | > 100 µM (inactive)
* COC(=O)OCC1OC(N2C(=O)NC(=O)C(I)C2N=[N+]=[N-])CC1OC(=O)OC (stereo unspecified) | > 100 µM (inactive)

Batch of 3 compounds: report GI50 for each.
1. COc1ccc(/C=C/c2cc(OC)cc(OC)c2)cc1
2. CC(C)c1ccc2c(c1)/C(=C1/Nc3ccccc3C1=O)C(=O)N2
3. COC(=O)C1=C(C(=O)OC)C2(C)CCC(=O)C1O2 (stereo unspecified)

1. 5.43 µM (inactive)
2. 3.62 µM (inactive)
3. > 10 µM (inactive)

For every record below, what is its GI50?
1. c1cc2c(cc1C(N1CCNCC1)N1CCNCC1)OCO2
2. CCOC(=O)Cc1nc2sc(S(N)(=O)=O)nn2c1Br
3. CC(Cn1c(=O)oc2ccccc21)N(C)C (stereo unspecified)
4. COc1cc2c(cc1OC)C(=O)N(c1ccc(OCCN3CCCC3)cc1)C2

1: > 100 µM (inactive); 2: 27.2 µM (inactive); 3: > 100 µM (inactive); 4: > 100 µM (inactive)

Bench note: what GI50 did COc1cccc2c1C(=O)c1c(O)c3c(c(O)c1C2=O)C[C@H](O)C[C@@H]3OC1CC(N)C(O)C(C)O1 (stereo partly specified) show? 1.08 µM (active)
